Tested on: RS4;11 (BCL-2 dependent acute lymphoblastic leukemia cell line)
Assay Notes: RS4;11 Cell Proliferation Assay
Assay type: cell-based
Measurement Setup: Homo sapiens, RS4-11, RS4;11 cells, read-out: Cellular proliferation assay (IC50, nM) RS4
The following compounds are shown together with reported IC50 values.
Measurement Kind: IC50 (nM)

>>> measurement("COc1cc(CN2CCN(C3CC4(CCN(c5ccc(C(=O)NS(=O)(=O)c6ccc(NC[C@H]7CC[C@](C)(O)CC7)c([N+](=O)[O-])c6)c(Oc6cnc7[nH]cc(F)c7c6)c5)CC4)C3)[C@H](c3ccccc3C(C)C)C2)ccc1F")
0.13
>>> measurement("COc1ccc(CN2CCN(C3CC4(CCN(c5ccc(C(=O)NS(=O)(=O)c6ccc(NC[C@H]7CC[C@](C)(O)CC7)c([N+](=O)[O-])c6)c(Oc6cnc7[nH]ccc7c6)c5)CC4)C3)C(c3ccccc3C(C)C)C2)cc1OC (some centres unmarked)")
0.286
>>> measurement("[2H]C([2H])(c1ccc(OC)c(OC)c1)N1CCN(C2CC3(CCN(c4ccc(C(=O)NS(=O)(=O)c5ccc(NC[C@H]6CC[C@](C)(O)CC6)c([N+](=O)[O-])c5)c(Oc5cnc6[nH]ccc6c5)c4)CC3)C2)C(c2ccccc2C(C)C)C1 (some centres unmarked)")
0.26
>>> measurement("CC(C)c1ccccc1C1CN(C2CCCCC2)CCN1C1CC2(CCN(c3ccc(C(=O)NS(=O)(=O)c4ccc(NC[C@H]5CC[C@](C)(O)CC5)c([N+](=O)[O-])c4)c(Oc4cnc5[nH]ccc5c4)c3)CC2)C1 (some centres unmarked)")
0.51
>>> measurement("COc1ccc(CN2CCN(C3CC4(CCN(c5ccc(C(=O)NS(=O)(=O)c6ccc(NC[C@H]7CC[C@](C)(O)CC7)c([N+](=O)[O-])c6)c(Oc6cnc7[nH]cc(F)c7c6)c5)CC4)C3)C(c3ccccc3C(C)C)C2)cc1OC(F)F (some centres unmarked)")
0.386
>>> measurement("COc1ccc(CN2CCN(C3CC4(CCN(c5ccc(C(=O)NS(=O)(=O)c6ccc(NC[C@H]7CC[C@](C)(O)CC7)c([N+](=O)[O-])c6)c(Oc6cnc7[nH]cc(F)c7c6)c5)CC4)C3)[C@H](c3ccccc3C(C)C)C2)cn1")
0.11
>>> measurement("COc1ccc(CN2CCN(C3CC4(CCN(c5ccc(C(=O)NS(=O)(=O)c6ccc(NC[C@H]7CC[C@](C)(O)CC7)c([N+](=O)[O-])c6)c(Oc6cnc7[nH]ccc7c6)c5)CC4)C3)C(c3ccccc3C)C2)cc1 (some centres unmarked)")
1.3
>>> measurement("CC(C)c1ccccc1C1CN(Cc2ccccn2)CCN1C1CC2(CCN(c3ccc(C(=O)NS(=O)(=O)c4ccc(NC[C@H]5CC[C@](C)(O)CC5)c([N+](=O)[O-])c4)c(Oc4cnc5[nH]ccc5c4)c3)CC2)C1 (some centres unmarked)")
0.57

---

Test system: RS4;11 (BCL-2 dependent acute lymphoblastic leukemia cell line)
Assay Notes: RS4;11 Cell Proliferation Assay
Type: cell-based
Measurement Setup: Homo sapiens, RS4-11, RS4;11 cells, read-out: Cellular proliferation assay (IC50, nM) RS4
Measurement Kind: IC50 (nM)

>>> measurement("COc1cnc(CN2CCN(C3CC4(CCN(c5ccc(C(=O)NS(=O)(=O)c6ccc(NC[C@H]7CC[C@](C)(O)CC7)c([N+](=O)[O-])c6)c(Oc6cnc7[nH]ccc7c6)c5)CC4)C3)C(c3ccccc3C(C)C)C2)cn1 (some centres unmarked)")
0.38
>>> measurement("[2H]C([2H])([2H])Oc1cc(CN2CCN(C3CC4(C3)CN(c3ccc(C(=O)NS(=O)(=O)c5ccc(NC[C@H]6CC[C@](C)(O)CC6)c([N+](=O)[O-])c5)c(Oc5cnc6[nH]ccc6c5)c3)C4)[C@H](c3ccccc3C(C)C)C2)cc2c1OCC2(C)C")
0.22
>>> measurement("COc1ccc(CN2CCN(C3CC4(CCN(c5ccc(C(=O)NS(=O)(=O)c6ccc(NCC7CCOCC7)c([N+](=O)[O-])c6)c(Oc6cnc7[nH]cc(F)c7c6)c5)CC4)C3)[C@H](c3ccccc3C(C)C)C2)cc1OC")
0.15
>>> measurement("COc1cc(CN2CCN(C3CC4(CCN(c5ccc(C(=O)NS(=O)(=O)c6ccc(NC[C@H]7CC[C@](C)(O)CC7)c([N+](=O)[O-])c6)c(Oc6cnc7[nH]ccc7c6)c5)CC4)C3)C(c3ccccc3C(C)C)C2)cc(F)c1OC (some centres unmarked)")
0.35
>>> measurement("COc1ccc(CN2CCN(C3CC4(CCN(c5ccc(C(=O)NS(=O)(=O)c6ccc(NC[C@H]7CC[C@](C)(O)CC7)c([N+](=O)[O-])c6)c(Oc6cnc7[nH]ccc7c6)c5)CC4)C3)C(c3cc(F)ccc3C(C)C)C2)cc1 (some centres unmarked)")
0.27
>>> measurement("CC(C)c1ccccc1C1CC(Oc2ccccc2)CCN1C1CC2(CCN(c3ccc(C(=O)NS(=O)(=O)c4ccc(NC[C@H]5CC[C@](C)(O)CC5)c([N+](=O)[O-])c4)c(Oc4cnc5[nH]ccc5c4)c3)CC2)C1 (some centres unmarked)")
0.47
>>> measurement("CC(C)c1ccccc1[C@@H]1CN(Cc2ccc(Cl)cc2)CCN1C1CC2(CCN(c3ccc(C(=O)NS(=O)(=O)c4ccc(NC[C@H]5CC[C@](C)(O)CC5)c([N+](=O)[O-])c4)c(Oc4cnc5[nH]ccc5c4)c3)CC2)C1 (single isomer, unassigned) [Example 29a]")
0.22
>>> measurement("CC(C)c1ccccc1[C@@H]1CN(Cc2ccnc3c2OCC(C)(C)O3)CCN1C1CC2(C1)CN(c1ccc(C(=O)NS(=O)(=O)c3ccc(NC[C@H]4CC[C@](C)(O)CC4)c([N+](=O)[O-])c3)c(Oc3cnc4[nH]ccc4c3)c1)C2")
0.16

---

Measured IC50, listed per entry for reference.
Experimental Target: Recombinant human Bcl-2 protein (Homo sapiens (Human))
Assay Notes: Bcl-2 TR-FRET Assay
Type: binding
Measurement Setup: Bcl-2 wild type, TR-FRET; read-out: Biochemical assay (IC50, nM) Bcl-2 WT
Measurement Kind: IC50 (nM)

>>> measurement("CC(C)c1ccccc1C1CN(S(=O)(=O)c2ccccc2)CCN1C1CC2(CCN(c3ccc(C(=O)NS(=O)(=O)c4ccc(NC[C@H]5CC[C@](C)(O)CC5)c([N+](=O)[O-])c4)c(Oc4cnc5[nH]ccc5c4)c3)CC2)C1 (stereo partly shown)")
0.33
>>> measurement("CC(C)c1ccccc1[C@@H]1CN(Cc2ccc3c(c2)OCC3)CCN1C1CC2(C1)CN(c1ccc(C(=O)NS(=O)(=O)c3ccc(NC[C@H]4CC[C@](C)(O)CC4)c([N+](=O)[O-])c3)c(Oc3cnc4[nH]ccc4c3)c1)C2")
0.099
>>> measurement("COc1ccc(CN2CCN(C3CC4(CCN(c5ccc(C(=O)NS(=O)(=O)c6ccc(NC[C@H]7CC[C@](C)(O)CC7)c([N+](=O)[O-])c6)c(Oc6cnc7[nH]ccc7c6)c5)CC4)C3)[C@H](c3ccccc3C(C)C)C2)cc1 [Example 19a]")
0.057
>>> measurement("COc1ccc(CN2CCN(C3CC4(CCN(c5ccc(C(=O)NS(=O)(=O)c6ccc(NC[C@H]7CC[C@](C)(O)CC7)c([N+](=O)[O-])c6)c(Oc6cnc7[nH]ccc7c6)c5)CC4)C3)C(c3ccccc3C3CC3)C2)cc1 (stereo partly shown)")
0.06

---

Documented IC50 across a set of compounds
Experimental Target: Recombinant human Bcl-2 protein (Homo sapiens (Human), UniProt P10415)
Sequence (P10415 whole entry): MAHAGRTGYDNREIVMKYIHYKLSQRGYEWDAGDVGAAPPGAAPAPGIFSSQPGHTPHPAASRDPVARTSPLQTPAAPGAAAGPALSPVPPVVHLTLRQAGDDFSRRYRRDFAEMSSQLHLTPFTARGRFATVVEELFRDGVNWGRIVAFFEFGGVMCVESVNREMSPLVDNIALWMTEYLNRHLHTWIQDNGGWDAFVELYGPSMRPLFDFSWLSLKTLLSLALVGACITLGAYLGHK
Assay Notes: Bcl-2 TR-FRET Assay
Type: binding
Measurement Setup: Bcl-2 wild type, TR-FRET; read-out: Biochemical assay (IC50, nM) Bcl-2 WT
Measurement Kind: IC50 (nM)

>>> measurement("CC(C)c1ccccc1C1CN(Cc2ccccc2)CCN1C1CC2(CCN(c3ccc(C(=O)NS(=O)(=O)c4ccc(NCC5(F)CCOCC5)c([N+](=O)[O-])c4)c(Oc4cnc5[nH]ccc5c4)c3)CC2)C1 (stereo not drawn)")
0.27
>>> measurement("COc1ccc(OC2CCN(C3CC4(CCN(c5ccc(C(=O)NS(=O)(=O)c6ccc(NC[C@H]7CC[C@](C)(O)CC7)c([N+](=O)[O-])c6)c(Oc6cnc7[nH]ccc7c6)c5)CC4)C3)C(c3ccccc3C(C)C)C2)cc1 (stereo partly drawn)")
0.36
>>> measurement("COc1cc(CN2CCN(C3CC4(C3)CN(c3ccc(C(=O)NS(=O)(=O)c5ccc(NC[C@H]6CC[C@](C)(O)CC6)c([N+](=O)[O-])c5)c(Oc5cnc6[nH]ccc6c5)c3)C4)[C@H](c3ccccc3C(C)C)C2)ccc1C(F)(F)F")
0.9
>>> measurement("CC(C)c1ccccc1C1CN(Cc2cccc3c2OCCO3)CCN1C1CC2(CCN(c3ccc(C(=O)NS(=O)(=O)c4ccc(NC[C@H]5CC[C@](C)(O)CC5)c([N+](=O)[O-])c4)c(Oc4cnc5[nH]ccc5c4)c3)CC2)C1 (stereo partly drawn)")
0.16
>>> measurement("COc1ccc(CN2CCN(C3CC4(CCN(c5ccc(C(=O)NS(=O)(=O)c6ccc(NCC7CCOCC7)c([N+](=O)[O-])c6)c(Oc6cnc7[nH]ccc7c6)c5)CC4)C3)C(c3ccccc3C)C2)cc1 (stereo not drawn)")
0.053
>>> measurement("CC(C)c1ccccc1C1CN(Cc2cccc(F)c2)CCN1C1CC2(CCN(c3ccc(C(=O)NS(=O)(=O)c4ccc(NC[C@H]5CC[C@](C)(O)CC5)c([N+](=O)[O-])c4)c(Oc4cnc5[nH]ccc5c4)c3)CC2)C1 (stereo partly drawn)")
0.31
>>> measurement("CC(C)c1ccccc1C1CN(C2COC2)CCN1C1CC2(CCN(c3ccc(C(=O)NS(=O)(=O)c4ccc(NC[C@H]5CC[C@](C)(O)CC5)c([N+](=O)[O-])c4)c(Oc4cnc5[nH]ccc5c4)c3)CC2)C1 (stereo partly drawn)")
0.013
>>> measurement("COc1ccc(CN2CCN(C3CC4(C3)CN(c3ccc(C(=O)NS(=O)(=O)c5ccc(NC[C@H]6CC[C@](C)(O)CC6)c([N+](=O)[O-])c5)c(Oc5cnc6[nH]cc(Cl)c6c5)c3)C4)[C@H](c3ccccc3C(C)C)C2)cc1OC")
0.12
>>> measurement("CCc1ccc(CN2CCN(C3CC4(CCN(c5ccc(C(=O)NS(=O)(=O)c6ccc(NC[C@H]7CC[C@](C)(O)CC7)c([N+](=O)[O-])c6)c(Oc6cnc7[nH]ccc7c6)c5)CC4)C3)[C@H](c3ccccc3C(C)C)C2)cc1OC")
0.66
